Listed compounds paired with reported viability at 48 h, 25 µM
Assay: in vitro
Conditions: human, hek293t cells
Write down the numeric answer in % and omit the unit.

[Q] Please indicate viability at 48 h, 25 µM recorded for C=CC(=O)NCc1cn(C)nc1-c1ccccn1
[A] 79.4

[Q] Please indicate viability at 48 h, 25 µM recorded for CCCNC(=O)C(C#N)=Cc1ccns1
[A] 128

[Q] Please indicate viability at 48 h, 25 µM recorded for CC(=O)N(C)c1cccc(NC(=O)C(C#N)=Cc2ccco2)c1
[A] 104

[Q] Please indicate viability at 48 h, 25 µM recorded for C=CC(=O)N1CCC(C(=O)NCc2ccc(C(N)=O)cc2)CC1
[A] 82.2

[Q] Please indicate viability at 48 h, 25 µM recorded for C=CC(=O)NC(C)c1cn(-c2ccccc2)nn1 (stereo not drawn)
[A] 78.9

[Q] Please indicate viability at 48 h, 25 µM recorded for CC(Cl)C(=O)N1CCN(c2ccccc2)CC1 (stereo not drawn)
[A] 66.3

* * *

Assay: in vitro
Conditions: human, hek293t cells
QUANTITY_NAME: viability at 48 h, 25 µM (%)
Write down the numeric answer in % and omit the unit.

# COMPOUND, viability at 48 h, 25 µM [%]
data = [
    ("C=CC(=O)N1CC[C@H](NS(C)(=O)=O)C1", 60.7),
]

[Q] Please indicate viability at 48 h, 25 µM recorded for COc1ccc(C=C(C#N)C(=O)Nc2ccccc2C)cc1
[A] 114

[Q] Please indicate viability at 48 h, 25 µM recorded for CC1Cc2cc(C(=O)CCl)ccc2N1S(C)(=O)=O (stereo not shown)
[A] 0.28

[Q] Please indicate viability at 48 h, 25 µM recorded for N#Cc1ccccc1N1C(=O)C=CC1=O
[A] 65.2

[Q] Please indicate viability at 48 h, 25 µM recorded for C=CC(=O)NCc1cccc2c1OCO2
[A] 69.1

[Q] Please indicate viability at 48 h, 25 µM recorded for N#CC(=Cc1cccc([N+](=O)[O-])c1)C(=O)NCc1ccccc1
[A] 32

* * *

Assay: in vitro
Settings: human, hek293t cells
Listed compounds paired with reported viability at 48 h, 25 µM

Below, 4 compounds whose answers are already recorded.
# COMPOUND, viability at 48 h, 25 µM
data = [
    ("O=C(CCl)N1CC(Cc2ccc(F)cc2F)C1", "0.867%"),
    ("C=CC(=O)NCCNC(=O)[C@@]12CC[C@@](C)(C(=O)O1)C2(C)C", "52.8%"),
    ("O=C(CCl)Nc1ccc2c(c1)oc1ccccc12", "-0.0548%"),
    ("C=CC(=O)N1CSCC1C(=O)NCC1CC1 (stereo not shown)", "105%"),
]

[Q] Please indicate viability at 48 h, 25 µM recorded for Cc1cc(C)c(NC(=O)C(C#N)=Cc2ccc(C)o2)c(C)c1
[A] 94.3%

[Q] Please indicate viability at 48 h, 25 µM recorded for N#CC(=Cc1cccc(Cl)c1)C(=O)Nc1ccccc1C(F)(F)F
[A] 101%

[Q] Please indicate viability at 48 h, 25 µM recorded for O=C(CCl)c1cc(Cl)ccc1Cl
[A] 4.26%

* * *

Assay: in vitro
Details: human, hek293t cells
QUANTITY_NAME: viability at 48 h, 25 µM (%)
Write down the numeric answer in % and omit the unit.

Below, 2 compounds whose answers are already recorded.
# COMPOUND, viability at 48 h, 25 µM / %
measured = [
    ("C=CC(=O)N1CCCC(C2CCN(C(=O)c3cc(C)nn3C)CC2)C1 (stereo not drawn)", 55.9),
    ("CC(Cl)C(=O)Nc1ccc(C(C)(C)C)cc1 (stereo not drawn)", 66.1),
]

[Q] Please indicate viability at 48 h, 25 µM recorded for COc1c(Cl)cc(Cl)cc1C=C(C#N)C(N)=O
[A] 137

* * *

Assay: in vitro
Conditions: human, hek293t cells
viability at 48 h, 25 µM less than 90% is 1; viability at 48 h, 25 µM greater than or equal to 90% is -1.

# MOLECULE, CLASS_LABEL
rows = [
    ("N#CC(=Cc1ccccc1)C(=O)NC1CC1 [9-M15]", -1),
    ("CNC(=O)c1ccc(O)c(NC(=O)CCl)c1 [5-C10]", -1),
    ("Cc1c(C=C(C#N)C(=O)NCC2(c3ccccc3)CC2)cc(C#N)n1C [8-E22]", 1),
    ("C=CC(=O)NCCC(=O)N1CCc2ncncc2C1 [2-C04]", -1),
    ("N#CC(=Cc1cnc2ccc(C#N)cn12)C(=O)Nc1ccc(F)cc1 [9-E20]", -1),
]

[Q] viability at 48 h, 25 µM strictly < 90% for this molecule? COc1ccc(Cl)cc1NC(=O)C(C)Cl (stereo not shown) [6-G16]
[A] -1

[Q] viability at 48 h, 25 µM strictly < 90% for this molecule? C=CC(=O)N1CCC(C(=O)NCc2ccccc2)CC1 [1-I05]
[A] 1

[Q] viability at 48 h, 25 µM strictly < 90% for this molecule? C=CC(=O)N[C@@H](CN(C)C)c1ccccc1 [2-M19]
[A] 1

[Q] viability at 48 h, 25 µM strictly < 90% for this molecule? Cc1ccccc1NC(=O)C(C#N)=Cc1ccc2c(c1)OCCO2 [8-J03]
[A] -1

[Q] viability at 48 h, 25 µM strictly < 90% for this molecule? CC(=O)N1CCc2cc(C(=O)C(C)Cl)ccc21 (stereo not shown) [10-L22]
[A] 1

[Q] viability at 48 h, 25 µM strictly < 90% for this molecule? CC(Cl)C(=O)Nc1cccc([N+](=O)[O-])c1 (stereo not shown) [6-E08, 2-chloro-N-(3-nitrophenyl)propanamide]
[A] -1

[Q] viability at 48 h, 25 µM strictly < 90% for this molecule? N#CC(=Cc1ccc(OC(F)F)cc1)C(=O)NC1CCCCC1 [9-A04]
[A] 1

[Q] viability at 48 h, 25 µM strictly < 90% for this molecule? CC(C)NC(=O)C(C#N)=Cc1cc(F)ccc1F [8-C08]
[A] -1

[Q] viability at 48 h, 25 µM strictly < 90% for this molecule? COc1ccc(NC(=O)C(C#N)=Cc2cccc(O)c2)cc1Cl [9-C08]
[A] -1

[Q] viability at 48 h, 25 µM strictly < 90% for this molecule? C=CC(=O)NCc1ccccc1S(=O)(=O)NC(C)(C)C [1-J03]
[A] -1

[Q] viability at 48 h, 25 µM strictly < 90% for this molecule? C=CC(=O)N1CCC(C2CCOC2)C1 (stereo not shown) [1-H06]
[A] 1

[Q] viability at 48 h, 25 µM strictly < 90% for this molecule? N#CC(=Cc1ccc(Cl)cc1Cl)C(N)=O [8-H17]
[A] -1

[Q] viability at 48 h, 25 µM strictly < 90% for this molecule? N#CC(=Cc1cccc2ccccc12)C(=O)NCc1ccc(Cl)cc1 [8-J09]
[A] 1

[Q] viability at 48 h, 25 µM strictly < 90% for this molecule? C=CC(=O)N1CSCC1C(=O)N(C)C (stereo not shown) [1-G03]
[A] 1

* * *

Test: in vitro
Conditions: human, hek293t cells
Listed compounds paired with reported viability at 48 h, 25 µM

Below, 4 compounds whose answers are already recorded.
# COMPOUND, TEST_RESULT
records = [
    ("N#CC(=Cc1c(C2CC2)nc2sccn12)C(=O)NC1CCCCC1", "86.8%"),
    ("CN(C)C(=O)c1csc(C(=O)CCl)c1", "56.6%"),
    ("N#CC(=Cc1ccc(-c2ccccc2)cc1)C(=O)NCc1ccccc1", "81.4%"),
    ("COc1ccccc1NC(=O)c1ccc(NC(=O)CCl)cc1", "-0.113%"),
]

[Q] Please indicate viability at 48 h, 25 µM recorded for N#CC(=Cc1ccc(F)cc1)C(=O)Nc1ccccc1C(F)(F)F
[A] 81.7%

[Q] Please indicate viability at 48 h, 25 µM recorded for C=CC(=O)NCc1cn([C@@H]2COC[C@H]2OC)nn1
[A] 96.5%

[Q] Please indicate viability at 48 h, 25 µM recorded for C=CC(=O)N1CCN(S(=O)(=O)CC)CC1
[A] 106%

[Q] Please indicate viability at 48 h, 25 µM recorded for Cc1cccc(Cc2cnc(NC(=O)CCl)s2)c1
[A] -0.447%

[Q] Please indicate viability at 48 h, 25 µM recorded for CCCSc1nsc(NC(=O)CCl)n1
[A] 17.4%

[Q] Please indicate viability at 48 h, 25 µM recorded for CC(Cl)C(=O)N1CC(n2cc(C(N)=O)nn2)C1 (centres unmarked)
[A] 94.6%

[Q] Please indicate viability at 48 h, 25 µM recorded for N#CC(=Cc1ccc(N)cc1)C(=O)N1CCCC1
[A] 101%

[Q] Please indicate viability at 48 h, 25 µM recorded for C=CC(=O)Nc1ncc(C2CCCC(C)C2)s1 (centres unmarked)
[A] 0.801%

[Q] Please indicate viability at 48 h, 25 µM recorded for COc1ccccc1N(CC(F)(F)F)C(=O)CCl
[A] 7.84%

[Q] Please indicate viability at 48 h, 25 µM recorded for C=CC(=O)N1CCC(C(=O)N2CCOC(c3cccc(F)c3)C2)CC1 (centres unmarked)
[A] 102%

[Q] Please indicate viability at 48 h, 25 µM recorded for Cc1ccc(N2C(=O)C=CC2=O)c(C)c1
[A] 102%

[Q] Please indicate viability at 48 h, 25 µM recorded for Cc1ccc(-c2cc(NC(=O)CCl)n(-c3ccccc3)n2)cc1
[A] -0.283%
